B1: LINE1-full (parent)
chain: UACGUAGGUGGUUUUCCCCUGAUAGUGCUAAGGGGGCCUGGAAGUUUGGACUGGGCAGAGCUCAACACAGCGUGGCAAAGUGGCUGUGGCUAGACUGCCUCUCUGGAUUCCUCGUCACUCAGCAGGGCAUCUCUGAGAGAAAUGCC

Variants of: B1
Assay protocol: self-cleavage, relative activity (ratio to wild type); higher = more cleavage; in vitro, sequencing; the parent is a self-cleaving ribozyme
Returns the class for an entry based on its self-cleavage. Class ranges: low band: < 0.2; middle band: ≥ 0.2 and < 1; high band: ≥ 1

For orientation, consider the following solved cases.
| Variant key | Class |
| --- | --- |
| G48A A64U | middle band |
| G35U A140U | high band |
| U45G A142G | high band |
| G40A U104A | middle band |
| U52A G144A | high band |

Task item: Tag the class for U46A A64U
Reply: middle band

Task item: Tag the class for U108C C128U
Reply: high band

Task item: Tag the class for U13G C145U
Reply: high band

Task item: Tag the class for U15G U47A
Reply: high band
